Protocol Description: Area under curve was determined for 0-6 hr duration using dihydralazine as reference drug for the peak blood pressure
Type: ADME
Parameters: concentration or dose not given beside the values
As shown below, each of these molecules has a reported AUC units value.
Measured Metric: AUC units

molecule="CC(Cl)C(=O)Nc1ccc2c(c1)CC1CC(=O)NN=C21 (stereo not given)" endpoint_value=27140
molecule="CC(=O)Nc1ccc2c(c1)CC1CC(=O)NN=C21 (stereo not given)" endpoint_value=17560
molecule="CN1N=C2c3ccc(N)cc3CC2CC1=O (stereo not given)" endpoint_value=36740
molecule="CC(=O)Nc1ccc2c(c1)CC1CC(=O)N(C)N=C21 (stereo not given)" endpoint_value=31960
molecule="Nc1ccc2c(c1)CC1CC(=O)NN=C21 (stereo not given)" endpoint_value=24350

----------
Species on record: Mus musculus
Protocol Description: In vitro antithrombotic activity in mouse
Type: functional
Details: in the assay text read “In vivo” for “In vitro”
Measured Metric: Activity

molecule="CN1N=C2c3ccc(N)cc3CC2CC1=O (stereo not given)" measured_metric=Activity endpoint_value=58
molecule="CC(=O)Nc1ccc2c(c1)CC1CC(=O)NN=C21 (stereo not given)" measured_metric=Activity endpoint_value=100
molecule="CC(=O)Nc1ccc2c(c1)CC1CC(=O)N(C)N=C21 (stereo not given)" measured_metric=Activity endpoint_value=50
molecule="CC(Cl)C(=O)Nc1ccc2c(c1)CC1CC(=O)NN=C21 (stereo not given)" measured_metric=Activity endpoint_value=62
molecule="Nc1ccc2c(c1)CC1CC(=O)NN=C21 (stereo not given)" measured_metric=Activity endpoint_value=87

----------
The entries below are paired with their reported LD50.
Protocol Description: Compound was tested for its lethality in vivo in mouse
Type: ADME, organism-based
Measured Metric: LD50

compound="CC(=O)Nc1ccc2c(c1)CC1CC(=O)NN=C21 (stereo not given)" endpoint_value="1000 mg/kg"
compound="CN1N=C2c3ccc(N)cc3CC2CC1=O (stereo not given)" endpoint_value="750 mg/kg"
compound="CC(Cl)C(=O)Nc1ccc2c(c1)CC1CC(=O)NN=C21 (stereo not given)" endpoint_value="1000 mg/kg"
compound="CC(=O)Nc1ccc2c(c1)CC1CC(=O)N(C)N=C21 (stereo not given)" endpoint_value="1000 mg/kg"
compound="Nc1ccc2c(c1)CC1CC(=O)NN=C21 (stereo not given)" endpoint_value="308 mg/kg"

----------
Listing of entries alongside the reported log10 of ED25.
Species on record: Rattus norvegicus
Protocol Description: Dose that lowers blood pressure by 25 mm Hg was determined in spontaneous hypertensive rats (SHR)
Type: functional
Measured Metric: log10 of ED25 (log10 of the value in mg/kg)

molecule="N/N=c1\\[nH][nH]/c(=N\\N)c2ccccc12 [DIHYDRALAZINE]" endpoint_value=-0.14
molecule="Nc1ccc2c(c1)CC1CC(=O)NN=C21 (stereo unspecified)" endpoint_value=0.41
molecule="CN1N=C2c3ccc(N)cc3CC2CC1=O (stereo unspecified)" endpoint_value=1.19
molecule="CC(=O)Nc1ccc2c(c1)CC1CC(=O)N(C)N=C21 (stereo unspecified)" endpoint_value=1.18
molecule="CC(=O)Nc1ccc2c(c1)CC1CC(=O)NN=C21 (stereo unspecified)" endpoint_value=0.41
molecule="CC(Cl)C(=O)Nc1ccc2c(c1)CC1CC(=O)NN=C21 (stereo unspecified)" endpoint_value=1.00
